system: MDA-MB-231; assay: Cytotoxicity against human MDA-MB-231 cells expressing CXCR4 after 48 to 72 hrs by MTS assay; format: cell-based
observation type: CC50 (µM)
One number for each entry, in µM.

Some molecules with known CC50 results, for comparison:
molecule_smiles=N=C(NCCCN(CCCCN(CCCNC(=N)Nc1ccc2ccccc2c1)C(=N)Nc1ccc2ccccc2c1)C(=N)Nc1ccc2ccccc2c1)Nc1ccc2ccccc2c1 unit_label=µM value_reported=20
molecule_smiles=N=C(NCCCCNCCCNC(=N)Nc1cccc2ccccc12)Nc1cccc2ccccc12 unit_label=µM value_reported=120
molecule_smiles=N=C(Nc1ccccc1)N(CCCCN=C(N)Nc1ccccc1)CCCN=C(N)Nc1ccccc1 unit_label=µM value_reported=510

With those in mind, consider the next molecule.
**Q:** Fill in: CC50 of `N=C(NCCCNCCCCNCCCNC(=N)Nc1ccc2ccccc2c1)Nc1ccc2ccccc2c1` is ___
**A:** 17

---

target: C-X-C chemokine receptor type 4 (Homo sapiens); assay: Inhibition of T-140 binding to CXCR4 (unknown origin) expressed in dog Cf2Th cells incubated for 30 mins prior to T-140 addition measured after 30 mins by fluorescence assay
Give IC50 for every item shown.
Give bare numbers, in nM.

molecule_smiles=NC(=NCCCCN(CCCN=C(N)Nc1cccc2ccccc12)C(N)=Nc1cccc2ccccc12)Nc1cccc2ccccc12 value_reported=110
molecule_smiles=N=C(Nc1ccccc1)N(CCCCN=C(N)Nc1ccccc1)CCCN=C(N)Nc1ccccc1 value_reported=280
molecule_smiles=N=C(NCCCN(CCCCN(CCCNC(=N)Nc1ccc2ccccc2c1)C(=N)Nc1ccc2ccccc2c1)C(=N)Nc1ccc2ccccc2c1)Nc1ccc2ccccc2c1 value_reported=300

Provide the reported IC50 of each entry below, same order.
1. N=C(NCCCCNCCCNC(=N)Nc1cccc2ccccc12)Nc1cccc2ccccc12
2. N=C(NCCCN(CCCCN(CCCNC(=N)Nc1cccc2ccccc12)C(=N)Nc1cccc2ccccc12)C(=N)Nc1cccc2ccccc12)Nc1cccc2ccccc12
3. N=C(NCCCNCCCCN(CCCNC(=N)Nc1cccc2ccccc12)C(=N)Nc1cccc2ccccc12)Nc1cccc2ccccc12
4. N=C(NCCCNCCCCNCCCNC(=N)Nc1cccc2ccccc12)Nc1cccc2ccccc12
5. N=C(NCCCCNCCCNC(=N)Nc1ccccc1)Nc1ccccc1

**A:**
1: 220; 2: 380; 3: 40; 4: 180; 5: 260

---

molecular target: C-X-C chemokine receptor type 4 (Homo sapiens, UniProt P61073); experiment: Inhibition of T-140 binding to CXCR4 (unknown origin) expressed in dog Cf2Th cells incubated for 30 mins prior to T-140 addition measured after 30 mins by fluorescence assay
Sequence (P61073 whole entry): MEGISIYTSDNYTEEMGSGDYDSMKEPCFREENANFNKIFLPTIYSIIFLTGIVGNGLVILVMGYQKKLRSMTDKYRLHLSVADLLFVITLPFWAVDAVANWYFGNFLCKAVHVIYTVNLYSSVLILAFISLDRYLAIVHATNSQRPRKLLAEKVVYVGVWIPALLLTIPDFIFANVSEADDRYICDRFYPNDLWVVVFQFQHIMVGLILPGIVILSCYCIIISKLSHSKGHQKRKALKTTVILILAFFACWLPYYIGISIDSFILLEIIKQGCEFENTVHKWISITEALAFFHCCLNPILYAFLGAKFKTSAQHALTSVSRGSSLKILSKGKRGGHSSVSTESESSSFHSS
Give pIC50 for every item shown.
Give bare numbers, as −log10 of the molar value.

Provide the reported pIC50 of each entry below, same order.
1. NC(=NCCCCNCCCN=C(N)Nc1ccc2ccccc2c1)Nc1ccc2ccccc2c1
2. NC(=NCCCNCCCCN(CCCN=C(N)Nc1ccc2ccccc2c1)C(N)=Nc1ccc2ccccc2c1)Nc1ccc2ccccc2c1
3. N=C(NCCCNCCCCNCCCNC(=N)Nc1ccc2ccccc2c1)Nc1ccc2ccccc2c1
4. N=C(NCCCCN(CCCNC(=N)Nc1ccc2ccccc2c1)C(=N)Nc1ccc2ccccc2c1)Nc1ccc2ccccc2c1
5. N=C(Nc1ccccc1)N(CCCCN(CCCN=C(N)Nc1ccccc1)C(N)=Nc1ccccc1)CCCNC(N)=Nc1ccccc1

**A:**
[7.21, 7.03, 6.96, 6.72, 6.29]

---

system: MDA-MB-231; experiment: Cytotoxicity against human MDA-MB-231 cells expressing CXCR4 after 48 to 72 hrs by MTS assay; type: cell-based
Give CC50 for every item shown.
One number for each entry, in µM.

Some compounds with known CC50 results, for comparison:
molecule_smiles=N=C(NCCCN(CCCCN(CCCNC(=N)Nc1cccc2ccccc12)C(=N)Nc1cccc2ccccc12)C(=N)Nc1cccc2ccccc12)Nc1cccc2ccccc12 observation_type=CC50 value_reported=7.3
molecule_smiles=N=C(NCCCNCCCCN(CCCNC(=N)Nc1cccc2ccccc12)C(=N)Nc1cccc2ccccc12)Nc1cccc2ccccc12 observation_type=CC50 value_reported=18
molecule_smiles=NC(=NCCCNCCCCN(CCCN=C(N)Nc1ccc2ccccc2c1)C(N)=Nc1ccc2ccccc2c1)Nc1ccc2ccccc2c1 observation_type=CC50 value_reported=15

Provide the reported CC50 of each entry below, same order.
1. NC(=NCCCCNCCCN=C(N)Nc1ccc2ccccc2c1)Nc1ccc2ccccc2c1
2. N=C(NCCCNCCCCNCCCNC(=N)Nc1cccc2ccccc12)Nc1cccc2ccccc12

**A:**
1. 76
2. 300
